These entries and their values trace back to patent US20230027475A1.

Listed binders paired with reported kon
Molecular target: T1, A56.hFc (Vaccinia virus, Wyeth strain, UniProt P20978 17-279)
T1 construct: also called A56 human Fc fusion protein; A56 protein
T1 chain: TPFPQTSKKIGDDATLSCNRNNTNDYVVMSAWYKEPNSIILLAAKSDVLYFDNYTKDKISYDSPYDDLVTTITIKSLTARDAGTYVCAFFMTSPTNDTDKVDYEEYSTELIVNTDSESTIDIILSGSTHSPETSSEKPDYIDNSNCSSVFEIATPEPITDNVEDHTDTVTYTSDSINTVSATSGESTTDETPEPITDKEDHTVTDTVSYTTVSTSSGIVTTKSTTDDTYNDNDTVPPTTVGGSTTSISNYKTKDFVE
Assay: SPR Biacore T200, antibody amine-coupled, A56.hFc as analyte, 1:1 Langmuir fit

A049 (antibody, V domains shown, also called A049 (A56); A049 anti-A56 hIgG1) VH: QSLEESGGDLVKPGASLTLTCTASGIDFSDIYYISWVRQAPGKGLEWIACTYAGSSGSTYYATWAKGRFTISKASSTTVTLQMTSLTAADTATYFCARDRYPGTSGRVYGMDLWGPGTLVTVSS VL: VVMTQTPSSVSEPVGGTVTIKCQASQSISDLLSWYQQKPGQPPKLLIYSASTLASGVSSRFKGSGSGTEFTLTISDLECADAATYYCQCNYYSPTYGNGFGGGTEVVVK : 395000 M⁻¹ s⁻¹

Q. Which kon is listed for A054 (antibody, V domains shown, also called A054 (A56); anti-A56 rabbit antibody A054 hIgG1) VH: QEQVVESGGGLVKPGASLTLTCTASGFTLSSSYWICWVRQAPGKGPEWIACTYNGDGSTHYASWAKGRFTISKSSSTTVTLQMTSLTAADTATYFCARDYTDAFYTYGFNLWGPGTLVTVSS VL: DIVMTQTPASVSEPVGGTVTIKCQASQSTSSYLAWYQQKPGQPPKLLIYRASSLASGVPSRFKGSGSATEFTLTISDLECADAATYYCQTGFYGSSGHTFGGGTEVVVK ?
A. 925000 M⁻¹ s⁻¹

Q. Item: A047 (antibody, V domains shown, also called A047 (A56); anti-A56 rabbit antibody A047 hIgG1) VH: QEQLEESGGDLVKPEGSLTLTCTASGFSFSSSYWICWVRQAPGKGLEWIACIYAGSGGSTYYATWAKGRFTISKTSSTTVTLQMTSLTAADTASYFCVRAYSDRSGGYSFNLWGPGTLVTVSS VL: QVLTQTASPVSAAVGGTVTINCQASQSVDNNNYLAWYQQKPGQPPKQLIYSASSLASGVPSRFKGSGSGTQFTLTISDVQCDDAATYYCLGSYDCSDADCYAFGGGTEVVVK
A. 19200 M⁻¹ s⁻¹

Q. Item: A050 (antibody, V domains shown, also called A050 (A56); anti-A56 rabbit antibody A050 hIgG1) VH: QSLEESGGDLVKPGASLTLTCTASGFSFSSSYWLCWARQAPGKGPEWIACIYNGDGSTHYASWAKGRFTISKSSSTTVTLQMTSLTAADTATYFCARDYTYNFYTYGFNLWGPGTLVTVSS VL: FELTQTPSSVEAAVGGTVTINCQASQSVNIWASWYQQKPGQPPKLLIYKASTLASGVPSRFKGSGSGTEFTLTISDLECADAATYYCQGGYPSSSSGWAFGGGTEVVVK
A. 99800 M⁻¹ s⁻¹
